// reported pKi for each item listed
target: human MCH-1 receptor (Homo sapiens (Human)); test: Binding assay for human melanin-concentrating hormone (MCH1) receptor; conditions: membranes from CHO-K1 cells expressing human MCH1 receptor; 1.4 nM [3H]-labeled radioligand, 60 min at 25° C., pH 7.4; Ki from Cheng Prusoff equation
Sequence (Q99705 whole entry): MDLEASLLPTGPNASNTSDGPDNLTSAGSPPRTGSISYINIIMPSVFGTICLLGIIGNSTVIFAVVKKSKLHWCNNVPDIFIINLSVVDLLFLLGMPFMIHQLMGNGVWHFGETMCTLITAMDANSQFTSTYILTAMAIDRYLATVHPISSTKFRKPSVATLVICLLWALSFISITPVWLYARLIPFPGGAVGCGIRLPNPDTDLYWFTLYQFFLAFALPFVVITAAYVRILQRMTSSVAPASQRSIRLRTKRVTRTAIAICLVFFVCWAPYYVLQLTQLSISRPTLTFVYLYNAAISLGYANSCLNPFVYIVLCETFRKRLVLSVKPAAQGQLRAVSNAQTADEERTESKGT
pKi: −log10 of the molar value. Structures can show the parent of a compound that is named as a salt.
property_label: pKi

>>> print(df.to_string())
                                   molecule  recorded_result
0  Cl.Cn1c2c(c3ccc(-n4ccc(-c5ccc(C(F)(F)F)nc5)cc4=O)nc31)C1CCCN1CC2 (stereo not shown) [Example 48, Hydrochloride]             7.33
1  Cl.Cn1c2c(c3ccc(-n4ccc(-c5ccc(C(F)(F)F)cc5)cc4=O)nc31)C1CCCN1CC2 (stereo not shown) [Example 49, Hydrochloride]             7.82
2  Cl.Cn1c2c(c3ccc(-n4ccc(-c5ccc(C(F)(F)F)nc5)cc4=O)cc31)C1CCCN1CC2 (stereo not shown) [Example 14, Hydrochloride]             6.82
3  Cl.Cn1c2c(c3ccc(-n4ccc(-c5ccc(Cl)cn5)cc4=O)cc31)CCN1CCCCC21 (stereo not shown) [Example 9, Hydrochloride]             5.76
4  Cl.O=c1cc(OCc2ccccc2)ccn1-c1ccc2c3c([nH]c2c1)CC1CCCN1C3 (stereo not shown) [Example 16, Hydrochloride]             8.15
5  Cl.Cn1c2c(c3ccc(-n4ccc(OCc5ccc(C(F)(F)F)nc5)cc4=O)cc31)CN1CCCC1C2 (stereo not shown) [Example 32, Hydrochloride]             7.62
6  O=c1cc(OCc2ccc(F)cn2)ccn1-c1ccc2c3c([nH]c2c1)CCN1CCCC31 (stereo not shown) [Example 25, Hydrochloride]             7.85

These entries and their values trace back to patent US8618299B2.
